These data points were gathered from patent US11091490B2.

# Test system: NCIH82 (lung)
# Test Method Notes: In vitro proliferation screening (Sulforhodamin B) NCIH82
# Assay type: cell-based
# Measurement Parameters: Homo sapiens, NCI-H82; NCIH82, 72 h; unit M
Measurement Kind: IC50 (nM)

[[record]]
molecule = "CCN(CC)CC(=O)Nc1ccc(Cc2nc3c(c(N(C)C)nn3-c3c(Cl)cc(S(N)(=O)=O)cc3Cl)c(=O)[nH]2)cc1 [Compound 86]"
measurement_kind = "IC50"
units_text = "nM"
endpoint_result = 21.3


----------
# Tested on: RPMI-8226/GN1
# Test Method Notes: Multiple myeloma cells in mono- and co-culture with osteoblasts, imaging based detection (RPMI-8226)
# Type: cell-based
# Measurement Parameters: Homo sapiens, RPMI-8226, RPMI-8226/GN1, mono-culture; read-out: mono-culture EC50
pEC50: −log10 of the molar value.
Reported pEC50 values follow for various compounds
Measurement Kind: pEC50

[[record]]
compound = "CC(C)c1nn(-c2c(Cl)cc(Cl)cc2Cl)c2nc(Cc3ccc(NC(=O)C4CN(C)CCN4C)cc3)[nH]c(=O)c12 (centres unmarked) [Reference compound, reference compound]"
endpoint_result = 6.92

[[record]]
compound = "CCN(CC)CC(=O)Nc1ccc(Cc2nc3c(c(N(C)C)nn3-c3c(Cl)cc(S(N)(=O)=O)cc3Cl)c(=O)[nH]2)cc1"
endpoint_result = 6.85


----------
# Tested on: MDAMB468 (breast)
# Test Method Notes: In vitro proliferation screening (Sulforhodamin B) MDAMB468
# Assay type: cell-based
# Measurement Parameters: Homo sapiens, MDA-MB-468; MDAMB468, 72 h; unit M
pIC50: −log10 of the molar value.
Measurement Kind: pIC50

[[record]]
smiles_representation = "CCN(CC)CC(=O)Nc1ccc(Cc2nc3c(c(N(C)C)nn3-c3c(Cl)cc(S(N)(=O)=O)cc3Cl)c(=O)[nH]2)cc1"
endpoint_result = 7.37


----------
# Test system: BXPC3 (pancreas)
# Test Method Notes: In vitro proliferation screening (Sulforhodamin B) BXPC3
# Assay type: cell-based, human
# Measurement Parameters: Homo sapiens, BXPC-3; BXPC3, 72 h; unit M
pIC50: −log10 of the molar value.
Measurement Kind: pIC50

[[record]]
smiles_representation = "CCN(CC)CC(=O)Nc1ccc(Cc2nc3c(c(N(C)C)nn3-c3c(Cl)cc(S(N)(=O)=O)cc3Cl)c(=O)[nH]2)cc1"
endpoint_result = 7.38

